Reference source: patent US6093702A

# Test Description: Cell viability of preactivated PBMC by Trypan Blue exclusion
# Type: cell-based
# Stated Conditions: human, HC 0.15 mM, 2% Trypan Blue exclusion, read-out: cellular viability
Readout Type: viability at 72 h, 150 µM

Q. Any idea what its viability at 72 h, 150 µM is? The compound is NC(=O)NO [HC, hydroxycarbamide]
A. > 90%

====

# Test Description: in vitro
# Stated Conditions: human, cd4+ lymphocytes
Readout Type: cytotoxicity at 50 µM

Q. Fill blank: measured cytotoxicity at 50 µM of the molecule NC(=O)NO [HC, hydroxycarbamide] is ____.
A. > 50%
